target_under_test: PKC theta kinase (Homo sapiens, UniProt Q04759)
Sequence (Q04759 whole entry): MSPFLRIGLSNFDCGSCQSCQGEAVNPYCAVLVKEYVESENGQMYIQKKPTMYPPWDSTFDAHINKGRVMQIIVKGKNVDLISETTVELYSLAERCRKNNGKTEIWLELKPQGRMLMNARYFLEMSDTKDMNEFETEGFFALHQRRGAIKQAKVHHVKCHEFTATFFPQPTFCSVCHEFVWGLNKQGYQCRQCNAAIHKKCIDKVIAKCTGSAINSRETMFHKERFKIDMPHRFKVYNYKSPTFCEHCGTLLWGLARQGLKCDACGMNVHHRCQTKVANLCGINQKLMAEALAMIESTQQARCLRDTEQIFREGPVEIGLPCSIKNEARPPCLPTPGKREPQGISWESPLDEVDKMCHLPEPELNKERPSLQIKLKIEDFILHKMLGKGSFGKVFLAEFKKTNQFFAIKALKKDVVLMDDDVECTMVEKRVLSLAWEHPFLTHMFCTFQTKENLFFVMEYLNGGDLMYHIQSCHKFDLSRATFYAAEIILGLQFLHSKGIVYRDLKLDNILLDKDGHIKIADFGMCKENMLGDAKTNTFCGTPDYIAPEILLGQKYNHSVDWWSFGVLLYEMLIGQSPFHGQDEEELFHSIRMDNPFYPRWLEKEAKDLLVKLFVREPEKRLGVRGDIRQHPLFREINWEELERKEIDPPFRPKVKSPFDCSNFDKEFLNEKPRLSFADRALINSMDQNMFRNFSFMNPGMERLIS
test_summary: PKC theta kinase coupled-enzyme (NADH consumption) Ki assay
Format: biochemical
protocol_conditions: 240 μM ATP, 18 nM PKC theta kinase, 30° C.
quantity: Ki

Below: 3 compounds and their reported Ki.
- compound: "Cc1sc(N2CCN[C@@H](CC(C)C)C2)nc1-c1n[nH]c2ncccc12 [Compound 2]"
  Ki: "< 500 nM"
- compound: "CC(C)C[C@H]1CN(c2csc(-c3n[nH]c4ncccc34)n2)CCN1 [Compound 3]"
  Ki: "< 50 nM"
- compound: "Cc1sc(N2CCCNCC2)nc1-c1n[nH]c2ncccc12 [Compound 1]"
  Ki: "> 2800 nM"

Lab note: next compound to report on.
Measured on PKC theta kinase (Homo sapiens, UniProt Q04759), Cc1cn(C2CCNCC2)nc1-c1n[nH]c2ncccc12 [Compound 5] has a documented Ki of > 700 nM
